target: Tel-Jak2 (Homo sapiens); construct: The regions encompassing the kinase domains of JAK2 (nucleotides 2994–3914); TEL (ETV6, human P41212) N-terminal part encoded by nucleotides 1-487 of TEL; expressed in transfected cells; host or cells: BaF3 (murine) bearing pTET-off, transfected with pTELJAK2 (pTRE2 vector); the other entry of the earlier key: ETV6 (P41212, Transcription factor ETV6); assay: Cellular growth inhibition assay (MTT), Tel-Jak2 transformed BaF3 cell line; format: cell-based; settings: 40 hr incubation, read-out: Jak2: growth inhibitory activity (>50%) in transformed cell line Tel-Jak2
Sequence (O60674 with tags, fused parts or gaps): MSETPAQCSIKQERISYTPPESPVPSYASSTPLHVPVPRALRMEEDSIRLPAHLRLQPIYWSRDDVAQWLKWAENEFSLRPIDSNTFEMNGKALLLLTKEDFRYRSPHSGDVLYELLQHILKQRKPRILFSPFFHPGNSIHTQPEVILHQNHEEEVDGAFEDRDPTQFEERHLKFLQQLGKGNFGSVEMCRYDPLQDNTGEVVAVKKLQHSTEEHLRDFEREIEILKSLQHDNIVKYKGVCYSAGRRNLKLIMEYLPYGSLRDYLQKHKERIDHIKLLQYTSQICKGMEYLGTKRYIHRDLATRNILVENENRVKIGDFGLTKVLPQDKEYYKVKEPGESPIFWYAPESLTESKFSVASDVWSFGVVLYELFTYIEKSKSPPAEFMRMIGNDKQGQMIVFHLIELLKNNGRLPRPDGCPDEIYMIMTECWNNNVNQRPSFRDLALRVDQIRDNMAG
test.readout: inhibition at 50 µM

Write down inhibition at 50 µM measured for item COc1cc(-c2cncc(N[C@@H](C)c3ccccc3)n2)ccc1O > 50%

Complete the entry with inhibition at 50 µM for COc1cc(-c2cncc(NC(C)c3ccc(C(N)=O)cc3)n2)ccc1O (stereo not drawn) > 50%

Give inhibition at 50 µM for the following compound: COc1cc(-c2cncc(NC(C)c3ccc(NC(=O)CN4CCN(C)CC4)cc3)n2)ccc1O (stereo not drawn) > 50%
